The measurements presented in this section are drawn from ChEMBL document CHEMBL1201862.

system: HCT-15; test: NCI tumour cell line growth inhibition, 48 h
reported endpoint: GI50

smiles str: Cc1ccc(/N=C/c2ccc3c(c2)OCO3)cc1C
reported endpoint: GI50
result: > 100 µM
//
smiles str: O=C(O)[C@H](c1ccccc1)[C@@H](C(=O)O)c1ccccc1
reported endpoint: GI50
result: > 100 µM

Now consider the entry below.
Query string: Using the record for C=C(C)[C@H]1C=C[C@@H](OC(=O)c2cccnc2)[C@@]23CO[C@@](C)([C@H](OC(=O)c4cccnc4)[C@@]4(OC(C)=O)C[C@H](C)[C@H](OCCC)[C@@H]4[C@H]2OC(C)=O)[C@H]13 , report its GI50.
Result string: > 15 µM

----------
test system: SNB-19; assay: NCI tumour cell line growth inhibition, 48 h
Active and inactive are the calls of the source. Cut-off read from the data, not from the text of the source: active = GI50 up to about 1.1 µM and inactive = higher. Where a SMILES comes first, the peptide text is derived from it. The star is where a group is joined. Cbz = O=C(OCc1ccccc1)*; Boc = CC(C)(C)OC(=O)*; OSu = O=C1CCC(=O)N1O*; Bn = c1ccc(C*)cc1
// allowed return values: true for active, false for inactive

Here's what some known entries look like.
compound: CC(C)(C)OC(=O)NC(Cc1ccc(OCc2ccccc2)cc1)C(=O)NC(CCCCNC(=O)OCc1ccccc1)C(=O)ON1C(=O)CCC1=O (configuration not stated) (Boc-Tyr(Bn)-Lys(Cbz)-OSu; configuration not given here)
answer label: false
--
compound: O=C(O)C1CCCN1Cc1cc2ccccc2c2ccccc12 (configuration not stated)
answer label: false
--
compound: NC(=O)NC(=O)CCC(NS(=O)(=O)c1ccccc1)C(=O)NC(N)=O (configuration not stated)
answer label: false
--
compound: CCOC(=O)NC(=O)c1cn(CCCOC(=O)CCCCCCCCCCC(=O)OCCCn2cc(C(=O)NC(=O)OCC)c(=O)[nH]c2=O)c(=O)[nH]c1=O
answer label: false

# input for lookup
Query string: Recorded test call requested for O=C(Nc1nnc(S)[nH]1)C(=O)C(C(=O)c1ccc2ccccc2c1)C1OC(=O)c2ccccc21 (configuration not stated)
Result string: false

----------
tested on: OVCAR-4; assay: NCI tumour cell line growth inhibition, 48 h
Activity calls are given as the source filed them. Rule as the data show it: active = GI50 up to about 1.1 µM and inactive = higher.
reported endpoint: GI50

Consider the reported GI50 for these compounds:
compound: CC(C(=O)ON1C(=O)CCC1=O)c1ccc(C(=O)c2ccccc2)s1 (stereo not drawn)
GI50: > 100 µM (inactive)

compound: CN(C)c1ccc(/C=C2\C[C@H]3[C@@H]4CC=C5C[C@@H](O)CC[C@]5(C)[C@H]4CC[C@]3(C)[C@H]2O)cc1
GI50: 35.6 µM (inactive)

Now consider the entry below.
Query string: Give OVCAR-4 GI50 for CC1(C)OCC2OC(n3cnc4c(N)nc(Cl)nc43)C(OS(C)(=O)=O)C2O1 (stereo not drawn)
Result string: > 100 µM (inactive)

----------
test system: A549; test: NCI tumour cell line growth inhibition, 48 h
Calls of active or inactive are those of the source. Rule as the data show it: active = GI50 up to about 1.1 µM and inactive = higher.
reported endpoint: GI50

Consider the reported GI50 for these molecules:
molecule: CNC(=O)NS(=O)(=O)c1ccc(C)cc1.NS(=O)O
GI50: > 100 µM (inactive)

molecule: Nc1ccc2c(c1)S(=O)(=O)c1cc(N)ccc1-2
GI50: > 100 µM (inactive)

Now consider the entry below.
Query string: Using the record for CCOC(=O)/C=C1/C(CCCOCc2ccccc2)C2CCCC23CC2(CCN13)OCCO2 (stereo not drawn) , report its GI50.
Result string: 18.9 µM (inactive)

----------
tested on: NCI-H226; experiment: NCI tumour cell line growth inhibition, 48 h
Calls of active or inactive are those of the source. Rule as the data show it: active = GI50 up to about 1.1 µM and inactive = higher.
// allowed return values: active, inactive

Here's what some known entries look like.
compound: C#CCNC(CCCNC(=N)N)C(=O)O (configuration not stated)
target or test system: NCI-H226
answer label: inactive
//
compound: CCCCN/C(=N/C#N)NCc1ccccc1
target or test system: NCI-H226
answer label: inactive
//
compound: C=C1CC[C@@H](Br)C(C)(C)[C@]12CCC(C)(O)C(Cl)C2 (some centres not stated)
target or test system: NCI-H226
answer label: inactive
//
compound: COC1(OC)C=CC(=O)C=C1
target or test system: NCI-H226
answer label: inactive
//
compound: CN[C@@H]1C[C@H]2O[C@@](C)([C@@H]1OC)n1c3ccccc3c3c4c(c5c6ccccc6n2c5c31)C(=O)N[C@@H]4O
target or test system: NCI-H226
answer label: active

Query string: Recorded test call requested for Nc1c(-c2cn(Cc3ccccc3)c3ccccc23)[n+]([O-])c2ccccc2[n+]1[O-]
Result string: inactive

Query string: Recorded test call requested for CC(C)=NN/C(=N\c1ccc(Cl)cc1)NS(=O)(=O)c1ccc(C)cc1
Result string: inactive

----------
tested on: NCI-H226; assay: NCI tumour cell line growth inhibition, 48 h
Calls of active or inactive are those of the source. Cut-off read from the data, not from the text of the source: active = GI50 up to about 1.1 µM and inactive = higher.
reported endpoint: GI50

Consider the reported GI50 for these molecules:
molecule: COC(=O)C(C(=O)C(=O)Nc1ccc([N+](=O)[O-])cc1)c1nc2cc(C)c(C)cc2nc1O (stereo not drawn)
result: > 100 µM (inactive)
--
molecule: CCCCOCN/C(N)=N/C#N
result: > 100 µM (inactive)
--
molecule: COc1cc(-c2cc(-c3cc([N+](=O)[O-])c(/C=N/NC(=O)c4ccncc4)o3)ccc2OC)ccc1C
result: > 100 µM (inactive)
--
molecule: C=CSCCC(N)C(=O)O (stereo not drawn)
result: > 100 µM (inactive)
--
molecule: NC1CC2NC3CCCCC3NC2CC1N (stereo not drawn)
result: 48.9 µM (inactive)
--
molecule: O=C(CC(O)(C(F)(F)Cl)C(F)(F)Cl)CC(O)(C(F)(F)Cl)C(F)(F)Cl
result: 1.33 µM (inactive)
--
molecule: O=C(NCc1cccc2ccccc12)N/N=C\c1ccc(Cl)cc1
result: > 100 µM (inactive)

Now consider the entry below.
Query string: Using the record for C[N+](C)(C)CC1CCCc2ccccc2C1=O (stereo not drawn) , report its GI50.
Result string: 21.9 µM (inactive)

----------
tested on: NCI-H460; assay: NCI tumour cell line growth inhibition, 48 h
The source made the active and inactive calls. Rule as the data show it: active = GI50 up to about 1.1 µM and inactive = higher.
Measured GI50 values are reported for all entries that follow.

Consider the reported GI50 for these compounds:
compound: COC(=O)C1=C(C)C(=O)C2(CCCCCC2C(=O)OC)C1 (stereo not drawn)
GI50: > 100 µM (inactive)

compound: COc1ccc2c3c1OC1C(OC)(OC)CC4(C=C2)CN(C)CCC314 (stereo not drawn)
GI50: > 100 µM (inactive)

compound: N#Cc1nc(-c2ccccn2)oc1N
GI50: > 100 µM (inactive)

compound: Cc1ccc2sc3cc(=O)cc(C)c-3nc2c1
GI50: > 100 µM (inactive)

compound: O=C(/C=C/c1ccc(Oc2cc(C(=O)/C=C/c3ccc(O)cc3)c(O)cc2O)cc1)c1ccc(O)cc1O
GI50: 7.89 µM (inactive)

compound: CCOC(=O)/C=C1/C(CCCOCc2ccccc2)C2CCCC23CC2(CCN13)OCCO2 (stereo not drawn)
GI50: 18.7 µM (inactive)

compound: COc1ccc(-c2cn3ccsc3n2)cc1
GI50: 87.7 µM (inactive)

compound: O=C1c2ccccc2C(=O)N1C/C=N/NS(=O)(=O)c1ccc(Br)cc1
GI50: > 100 µM (inactive)

compound: NC(=O)c1cc2ccccc2o/c1=N/c1ccccc1
GI50: > 100 µM (inactive)

compound: CCOC(=O)C1=C(C#N)S(=O)(=O)c2c(oc(C)c2C)N1
GI50: > 100 µM (inactive)

Query string: Give NCI-H460 GI50 for O=C(CSc1nc2ccccc2c(=O)n1-c1ccccc1)N/N=C1\C(=O)Nc2ccc(Br)cc21
Result string: 4.92 µM (inactive)

Query string: Give NCI-H460 GI50 for CC(C)(C)c1cc(C(=O)/C=C/c2ccc3c(c2)OCO3)cc(C(C)(C)C)c1O
Result string: 4.8 µM (inactive)

Query string: Give NCI-H460 GI50 for Cn1c(N2CCCC2)c(C=O)c(=O)n(C)c1=O
Result string: > 100 µM (inactive)

----------
tested on: RXF 393; experiment: NCI tumour cell line growth inhibition, 48 h
The source made the active and inactive calls. Cut-off read from the data, not from the text of the source: active = GI50 up to about 1.1 µM and inactive = higher.
Measured GI50 values are reported for all entries that follow.

compound: CC(=O)OC/C=C(\C)CCC(Br)C(C)(C)Br (centres undefined)
GI50: > 10 µM (inactive)

Query string: Using the record for COc1ccc(CN2CCC/C=C/CC(Cl)(Cl)C2=O)cc1 , report its GI50.
Result string: 17 µM (inactive)

Query string: Using the record for COc1cccc(NC(=O)CC(=O)NN)c1 , report its GI50.
Result string: > 100 µM (inactive)

Query string: Using the record for O=S(=O)(O)c1cc(/N=N/c2c(O)ccc3ccccc23)c2c(S(=O)(=O)O)cccc2c1 , report its GI50.
Result string: > 100 µM (inactive)

Query string: Using the record for CCCCOCn1c(=O)[nH]c(=O)c2ccccc21 , report its GI50.
Result string: 48.2 µM (inactive)
